# procedure_text: Primary qHTS for delayed death inhibitors of the malarial parasite plastid, 48 hour incubation
# experimental_context: P. falciparum luciferase growth in erythrocytes; series mostly up to 28.7 µM
About 18,000 (5.8%) of roughly 310,000 compounds were called active. Another 22% or so got no clear call; they are omitted. The call rests on the fitted dose curve; in most records, active means well fitted inhibition curve with a large enough effect; inconclusive means small, poorly fitted or top-dose-only effect, or another doubt; inactive means no such curve, though single readings can be large or run the other way. Shown is part of a subset that was picked to be rich in actives.
Possible outcomes: active, inactive

- compound: "Cc1ccc(Nc2ncnc3c2cnn3C)c(C)c1"
  category_label: "inactive"
- compound: "CN1CCc2c(sc3c2c(NCc2ccco2)nc2nnnn23)C1"
  category_label: "inactive"
- compound: "COC(=O)C1=C(c2ccc(F)cc2F)C[C@@H]2CC[C@H]1N2C(=O)NC1CC1"
  category_label: "inactive"
- compound: "Cc1ccccc1NC(=O)C(C)OC(=O)CCC(=O)N(CC(C)C)c1c(N)n(CC(C)C)c(=O)[nH]c1=O (configuration not stated)"
  category_label: "inactive"
- compound: "COc1ccc(CNC(=O)C2CCN(S(C)(=O)=O)CC2)cc1"
  category_label: "inactive"
- compound: "NC(=O)C1CCN(C(=O)COc2cccc3cccnc23)CC1"
  category_label: "inactive"
- compound: "O=C(Cn1cc(-c2nnnn2-c2ccc(Cl)cc2)c(=O)c2ccccc21)c1ccccc1"
  category_label: "active"
- compound: "COc1cc(OC)c(NC(=O)c2ccc(Br)o2)cc1Cl"
  category_label: "active"
- compound: "CN(C)CCSc1nc(N)c2c3c(sc2n1)COC(C)(C)C3"
  category_label: "inactive"
- compound: "CCOC(=O)c1ccccc1NS(=O)(=O)c1ccc(OC)cc1"
  category_label: "inactive"
- compound: "CCOc1cc(N2CCOCC2)c(OCC)cc1NC(=O)COc1cccc2cccnc12"
  category_label: "active"
- compound: "O=C(CN1CCN(C(=O)c2ccco2)CC1)Nc1ccc(Cl)c(C(F)(F)F)c1"
  category_label: "inactive"
- compound: "COC(=O)C1=C(c2ccc3ccccc3c2)C[C@@H]2CC[C@H]1N2C(=O)NCCO"
  category_label: "inactive"
- compound: "CCOC(=O)c1c(-c2ccc(C)cc2)csc1/N=C(\\C)C1=C(O)c2ccccc2C1=O"
  category_label: "inactive"
- compound: "COC(=O)c1ccc(CNC(=O)C2CCC(=O)N(Cc3cccc(F)c3)C2)cc1 (configuration not stated)"
  category_label: "inactive"
- compound: "O=C(CN(C(=O)CCC(=O)Nc1nccs1)c1ccc(F)cc1)NCc1ccc2c(c1)OCO2"
  category_label: "inactive"
- compound: "COc1cc(COCC(O)CN2CCN(Cc3ccc4c(c3)OCO4)CC2)cc(OC)c1OC (configuration not stated)"
  category_label: "inactive"
- compound: "Cc1ccc2[nH]cc(CCNC(=O)C3CCCCC3)c2c1"
  category_label: "inactive"
- compound: "CN1CCN(NC(=O)Nc2ccc(Br)cc2)CC1"
  category_label: "inactive"
- compound: "Cc1cc(C)c2[nH]c(=O)c(CN(Cc3ccccc3)C(=S)NCCCN(C)C)cc2c1"
  category_label: "active"
- compound: "O=C(O)c1cc([N+](=O)[O-])c(Nc2cccc3ccccc23)c([N+](=O)[O-])c1"
  category_label: "inactive"
- compound: "c1ccc2cc(CCCc3cc4ccccc4cn3)ncc2c1"
  category_label: "inactive"
- compound: "O=C(NCCc1ccc(Cl)cc1)C1CCCN1C(=O)NCc1ccccc1 (configuration not stated)"
  category_label: "inactive"
- compound: "O=C(N/C(=C\\c1ccc(O)cc1)C(=O)N1CCCCC1)c1ccccc1"
  category_label: "inactive"
- compound: "Clc1ccc2c(c1)C1=C(C(c3ccncc3)O2)C(c2ccc(Br)cc2)n2ncnc2N1 (configuration not stated)"
  category_label: "active"
- compound: "CC(=O)NCCC(=O)Nc1cc(S(=O)(=O)N2CCOCC2)ccc1N1CCOCC1"
  category_label: "inactive"
- compound: "CC1(C(=O)OCC(=O)Nc2ncc(Cl)cc2Cl)CC1(Cl)Cl (configuration not stated)"
  category_label: "inactive"
- compound: "CCOC(=O)N1CCN(C(=O)COC(=O)c2cccc(S(C)(=O)=O)c2)CC1"
  category_label: "inactive"
- compound: "CCOc1cc(N2CCOCC2)c(OCC)cc1NC(=O)C1=NN(c2cccc(C)c2)C(=O)CC1"
  category_label: "inactive"
- compound: "CCCSc1nc(NCc2ccco2)c2c3c(sc2n1)COC(C)(CC)C3 (configuration not stated)"
  category_label: "active"
- compound: "COc1ccc(S(=O)(=O)N2CCCCCC2)cc1C(=O)N(C)Cc1cccc(OC)c1OC"
  category_label: "active"
- compound: "COc1ccc(/C=C2\\SC(=O)N(CCC(=O)NC3CCS(=O)(=O)C3)C2=O)cc1 (configuration not stated)"
  category_label: "inactive"
- compound: "COC(=O)c1ccc(N2CCOCC2)c(NC(=O)c2ccc(Br)o2)c1"
  category_label: "inactive"
- compound: "COc1ccc(-n2ncc3c2CC(C)(C)CC3NC(=O)CCc2c(C)nn(C)c2C)cc1 (configuration not stated)"
  category_label: "inactive"
- compound: "CC(C)(C)c1ccc(/C=C2\\Oc3c(ccc(O)c3CN3CCN(CCO)CC3)C2=O)cc1"
  category_label: "active"
- compound: "COCCn1c(C)cc(C(=O)COC(=O)CNC(=O)c2ccco2)c1C"
  category_label: "inactive"
- compound: "COc1ccc(S(=O)(=O)N2CCCCC2)cc1Br"
  category_label: "inactive"
- compound: "O=C(O)C1CC=C(Cl)CC1C(=O)NCc1ccccc1 (configuration not stated)"
  category_label: "inactive"
- compound: "O=C(Nc1ccccc1)OCc1cn(-c2ccc(Cl)cc2)nn1"
  category_label: "inactive"
- compound: "COc1c(O)ccc2c1CN1CCc3cc4c(cc3C1C2)OCO4 (configuration not stated)"
  category_label: "active"
- compound: "CCNC(=O)NC(=O)C(C)OC(=O)c1cc(S(=O)(=O)N2CCCCCC2)ccc1OC (configuration not stated)"
  category_label: "inactive"
- compound: "COC(=O)C1=C(c2ccccc2OCc2ccccc2)C[C@@H]2CC[C@H]1N2C(=O)NCc1ccc(OC)cc1"
  category_label: "active"
